Listed here: compounds with reported Ki for Cannabinoid receptor 1 (Rattus norvegicus).
Numbers only, in nM.

Observe how each entry below is paired with its result.
CCCCCCC(C)(C)c1cc(O)c2c(c1)OC(C)(C)[C@@H]1CC=C(CO)C[C@@H]21: 0.23
CCCCCCC(C)(C)c1ccc([C@H]2C[C@@H](O)C[C@H]3CC[C@@H](CO)C[C@@H]32)c(O)c1: 0.11

As a next step, examine the compound that follows.
For this compound ( "CCCCCCC(C)(C)c1cc(O)c2c(c1)OC(C)(C)[C@H]1CC=C(CO)C[C@H]21" ), measured Ki is 360
